The origin of these recorded values is ChEMBL document CHEMBL1128959.

# maps each entry to its pKB
# TARGET_SYSTEM: UniProt Q2NNR5
# Sequence (Q2NNR5 whole entry): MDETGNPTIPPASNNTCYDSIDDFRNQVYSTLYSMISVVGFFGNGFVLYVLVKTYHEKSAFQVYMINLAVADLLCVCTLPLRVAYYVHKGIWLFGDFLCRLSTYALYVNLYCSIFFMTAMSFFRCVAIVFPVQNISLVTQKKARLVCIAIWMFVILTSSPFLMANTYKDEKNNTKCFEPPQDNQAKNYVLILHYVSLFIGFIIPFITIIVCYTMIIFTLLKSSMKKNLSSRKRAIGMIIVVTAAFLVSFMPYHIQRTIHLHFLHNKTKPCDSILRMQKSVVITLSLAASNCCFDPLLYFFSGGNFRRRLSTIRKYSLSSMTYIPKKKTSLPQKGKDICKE
# ASSAY_NAME: Compound was tested for its inhibitory activity against specific binding of [3H]LTD4 to guinea pig trachea.
# Assay type: tissue-based
READOUT_TYPE: pKB

1. Clc1ccc2ccc(COc3cccc(CN4CCc5cccc(CCc6nnn[nH]6)c54)c3)nc2c1 ... 7.8
2. c1cc(CCc2nnn[nH]2)c2c(c1)CCN2Cc1ccc(OCc2ccc3ccccc3n2)cc1 ... 7.9
3. Clc1ccc2ccc(/C=C/c3cccc(CN4CCc5cccc(CCc6nnn[nH]6)c54)c3)nc2c1 ... 7
4. Clc1ccc2ccc(COc3ccc(CN4CCc5cccc(CCc6nnn[nH]6)c54)cc3)nc2c1 ... 7.6
